Every entry's value here was drawn from the supplement of paper PMC9112550.

test system: Escherichia coli TOP10; experiment: shrunken log2 fold change of peptide-encoding DNA abundance (4.5 h post-induction vs induction); higher = less antimicrobial activity (less host growth inhibition); conditions: time post-induction: 4.5 h; library: site-saturation at positions 5, 18, 19, 20;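 further: peptides expressed intracellularly from a pBAD plasmid library in pooled LB shake-flask culture, induced with 0.3% L-arabinose, DNA abundance read by NGS, three biological replicates, DESeq2 with apeglm shrinkage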

sequence: RRIRARPPRLPRPRPRPYMVPRP
shrunken log2 fold change: -0.583
--
sequence: RRIRNRPPRLPRPRPRPARFPRP
shrunken log2 fold change: 0.0266
--
sequence: RRIRCRPPRLPRPRPRPSHGPRP
shrunken log2 fold change: -0.33
--
sequence: RRIRIRPPRLPRPRPRPCYLPRP
shrunken log2 fold change: -0.0394
--
sequence: RRIRSRPPRLPRPRPRPHMEPRP
shrunken log2 fold change: -0.376
--
sequence: RRIRYRPPRLPRPRPRPKNPPRP
shrunken log2 fold change: -0.315
--
sequence: RRIRIRPPRLPRPRPRPFLKPRP
shrunken log2 fold change: -0.341
--
sequence: RRIRPRPPRLPRPRPRPHQEPRP
shrunken log2 fold change: 4.12
